FYI, the data here is from ChEMBL document CHEMBL1152901.

- TARGET ENTITY: UniProt:Q8R431
- Sequence (Q8R431 whole entry): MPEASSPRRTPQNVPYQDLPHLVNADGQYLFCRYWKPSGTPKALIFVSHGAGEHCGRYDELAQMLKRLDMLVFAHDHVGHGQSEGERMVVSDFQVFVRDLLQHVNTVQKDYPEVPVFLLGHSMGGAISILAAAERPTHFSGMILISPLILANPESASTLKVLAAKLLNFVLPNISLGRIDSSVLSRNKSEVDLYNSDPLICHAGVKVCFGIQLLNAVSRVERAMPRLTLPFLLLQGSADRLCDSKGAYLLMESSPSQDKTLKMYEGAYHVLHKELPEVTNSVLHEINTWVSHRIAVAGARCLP
- ASSAY PROTOCOL: Inhibition of MGL in Wistar rat cerebral membrane by HPLC
PROPERTY NAME: log10 IC50 (log10 of the value in µM)
// do not treat as linear: log10 of IC50, unit µM

Asked: Which measured log10 IC50 belongs to `O=C(NC1CCCCC1)Oc1ccc(C2=NCCS2)cc1` , tested on UniProt:Q8R431?
Given back: 1.43

Asked: Which measured log10 IC50 belongs to `Cc1ccccc1CNC(=O)Oc1ccc(C2=NCCO2)cc1` , tested on UniProt:Q8R431?
Given back: 1.54

Asked: Which measured log10 IC50 belongs to `O=C(NCCc1ccccc1)Oc1ccc(C2=NCCS2)cc1` , tested on UniProt:Q8R431?
Given back: 1.45

Asked: Which measured log10 IC50 belongs to `CCCNC(=O)Oc1ccc(C2=NCCS2)cc1` , tested on UniProt:Q8R431?
Given back: 1.66

Asked: Which measured log10 IC50 belongs to `COC(=O)c1ccc(OC(=O)NC2CCCCC2)cc1` , tested on UniProt:Q8R431?
Given back: 1.15

Asked: Which measured log10 IC50 belongs to `O=C(NC1CCCCC1)Oc1ccc([N+](=O)[O-])cc1` , tested on UniProt:Q8R431?
Given back: 1.28

Asked: Which measured log10 IC50 belongs to `CCNC(=O)Oc1ccc(C2=NCCS2)cc1` , tested on UniProt:Q8R431?
Given back: 2.01

Asked: Which measured log10 IC50 belongs to `Cc1ccccc1CNC(=O)Oc1ccc(C2=NCCS2)cc1` , tested on UniProt:Q8R431?
Given back: 1.66

Asked: Which measured log10 IC50 belongs to `CCCCCCNC(=O)Oc1ccc(-c2csnn2)cc1` , tested on UniProt:Q8R431?
Given back: 1.04

Asked: Which measured log10 IC50 belongs to `O=C(NC1CCCC1)Oc1ccc(C2=NCCS2)cc1` , tested on UniProt:Q8R431?
Given back: 1.04

Asked: Which measured log10 IC50 belongs to `CCCCNC(=O)Oc1ccc(C2=NCCO2)cc1` , tested on UniProt:Q8R431?
Given back: 1.53

Asked: Which measured log10 IC50 belongs to `O=C(NCc1ccccc1)Oc1ccc(C2=NCCS2)cc1` , tested on UniProt:Q8R431?
Given back: 1.62

Asked: Which measured log10 IC50 belongs to `Cc1ccc(CNC(=O)Oc2ccc(C3=NCCS3)cc2)cc1` , tested on UniProt:Q8R431?
Given back: 1.97

Asked: Which measured log10 IC50 belongs to `Cc1ccc(CNC(=O)Oc2ccc(C3=NCCO3)cc2)cc1` , tested on UniProt:Q8R431?
Given back: 2.10

Asked: Which measured log10 IC50 belongs to `O=C(NC1CCCC1)Oc1ccc(C2=NCCO2)cc1` , tested on UniProt:Q8R431?
Given back: 1.04

Asked: Which measured log10 IC50 belongs to `CCCCCCCCCCCCNC(=O)Oc1ccc(-c2csnn2)cc1` , tested on UniProt:Q8R431?
Given back: 0.28

Asked: Which measured log10 IC50 belongs to `CCCCCCCCCCCCNC(=O)Oc1ccc(C(=O)OC)cc1` , tested on UniProt:Q8R431?
Given back: 0.45

Asked: Which measured log10 IC50 belongs to `CCCCNC(=O)Oc1ccc(C2=NCCS2)cc1` , tested on UniProt:Q8R431?
Given back: 1.49

Asked: Which measured log10 IC50 belongs to `COc1ccc(CNC(=O)Oc2ccc(C3=NCCS3)cc2)cc1` , tested on UniProt:Q8R431?
Given back: 1.66

Asked: Which measured log10 IC50 belongs to `CCCCCCNC(=O)Oc1ccc(C(=O)OC)cc1` , tested on UniProt:Q8R431?
Given back: 1.54
